Provide the reported PBM binding z-score of each item.
Tested on: RARg:RXRa (NR concentration 270 nM, RXRa partner concentration 90 nM)
Assay: PBM binding z-score (relative to random genomic background probes); higher = stronger binding; sequences stand for … in GC…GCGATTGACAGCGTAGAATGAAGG
No unit in the answer, please; the number alone is enough.

PBM binding z-score lookup needed for `ATCGAAAGGTCGTGAGGTGAGAATACAGAAAGGC` , thanks. 4.62

Same question for `CAAACTAGGTCAAAGTTCAAAGTCGAGCCAACCA` please. 7.71

Same question for `TAGCCTAGGTCATTGGGCCAGTTTAGTACGCATC` please. 3.74

Same question for `TCATATAGATAAAGGTGAAAGTCGAACGATATGA` please. 1.29

Same question for `TCATATAGGTAAACAGGTGAAAGTTCGTAAGTTA` please. 1.11

Same question for `GCGCCTGGGGCAAAGCAGGTTACCATAAGGTTGG` please. 0.319

Same question for `GCGACTGGGGCATCGGCAGGTTACCATAACTTAA` please. 1.17

###

Test system: PXR homodimer (NR concentration 270 nM)
Assay: PBM binding z-score (relative to random genomic background probes); higher = stronger binding; sequences stand for … in GC…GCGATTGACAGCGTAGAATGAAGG
assayReadout: PBM binding z-score
No unit in the answer, please; the number alone is enough.

PBM binding z-score lookup needed for `TCTGCTAGGCCAACGATGGTCAGCTAATCTGCTA` , thanks. -1.31

Same question for `ATAATGAGGTTATTAAGATCAGGGAATTGCGGTC` please. 0.876

Same question for `TGAATGAGCTTAAAGATCAGGGAACGTGGCGTCG` please. -0.697

Same question for `ATCTCTAGGTAAGACTCAGTTCAGTGAAGAACGC` please. 1.31

Same question for `CAAACTAGGTAACAGAGGTCAAAGTCCGTGCGTA` please. 3.25

Same question for `CCTCGGAGGGCAGAAGGTCAGAGCTGTCCGCTTT` please. -0.405

Same question for `CCTCGGAGGACACAAGGTCAGAGCTGTCCGCTTT` please. 0.133

Same question for `CCGACTGGGGCAGAAAGGTCACCATACCATCCGG` please. 0.611

Same question for `TGCATGAGGTTAAAGATCAGGGAACGTGGCGTCG` please. 0.0644

Same question for `CTCGAAAGGTCGGTTGAGGTGAGTATGCGGATAA` please. 0.0767

Same question for `GCTAGCAGGCCCTTTGGGTCACTCAATGACGGGC` please. -0.555

Same question for `CCTATTAGTAGACCATAAGGGCAACCGAAGCTCG` please. 0.501

Same question for `AGAACGAGGGCAATGATTTGATAGCACGGGTGGC` please. 0.328

Same question for `CTACCAAGGTGAACAAGGTAGTTGATTACTATTC` please. -0.0276

Same question for `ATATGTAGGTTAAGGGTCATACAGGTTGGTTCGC` please. 1.88

Same question for `CAGCCTAGGTCAGGACCAGTATAGGAGGAACGTT` please. -0.104

Same question for `TCATGTAGGTAAACAGGTGAAAGTCCGTAAGTTA` please. 0.296

Same question for `ACTTACGGGTCAACGCGGTTATAGCACGCGTATA` please. 0.241

Same question for `CTACCAAGGTGAACAAGGTGGTTGATTACTATTC` please. 0.0854

Same question for `CTAACTAGGTCAAGAGGTCAAAGTCCGCTTCCCG` please. 2.21

Same question for `TCTTGTAGATCAAGCAGGTTAAGAATGCCTGAGT` please. -0.153

Same question for `TAGCCTAGGTCAGATCGGGCCAGCATACGCTATA` please. -0.628

Same question for `ATATGTAGATTAGCTGGGGTCATTCAGACTAGGC` please. 2.56

Same question for `ATGGAAAGGTCGACGAGGTGAGTATACACCGTTT` please. 0.609

Same question for `ACAGACAGGTGATGAAGGTACCTCAGGCTATCAT` please. 0.235

Same question for `CGTCAAACTTCAAGGTAACGTAACAGAAAGCAGC` please. 0.193

Same question for `TCTATTGGTTGATTAGGGCAACCGAAACAGCGGA` please. 0.277

Same question for `TTCCCAAGGTGAGCTGAGGTCGTTGATCCAACTC` please. 0.698

Same question for `ATCTCTAGGTAAAGCTCAGTGAAAGATCGATAGA` please. 0.14

Same question for `CCTATTGGGCCAAGGTCATTGATCAGTCAAAGCA` please. 1.21

Same question for `TCTTGTAGATCAATAGAGGTTACGAAAGTGCGCT` please. 0.389

Same question for `TCATATAGGTAAAGGGGAAAGTCGAACGATATGA` please. 0.506

Same question for `TCGAGTAGGTTAGGGCCATTCAGAATGGCGTCGA` please. -0.626

Same question for `TAGCCTAGGTCATGCGGGCCAGTGTAGTGTCGGC` please. -0.733

Same question for `AGAACGAGGCCAATGAGTTGATAGCACGGGTGGC` please. 0.741

Same question for `ATATGTAGGTTACATCCGGGCCATTCAGGCTATG` please. 0.119

Same question for `TCTAATTGGTCAAAGGTCACACACTCGAAATGCG` please. 1.5

Same question for `ACTTACGGGTCAACGAGGTGATAGCACGCGTATA` please. 0.307

Same question for `AGAACGAGGGCAATGAGTTGCTAGCACGGGTGGC` please. 0.523

Same question for `CTACCAAGGTGTACAAGGTCGTTGATTACTATTC` please. 1.18

Same question for `CCTTACGGGTCACGAGGGTATAGCACGACGAGCG` please. -0.0662

Same question for `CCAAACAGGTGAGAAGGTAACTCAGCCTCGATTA` please. 0.0845

Same question for `TCTCGGAGGACACGAAGGTCAGAGCCTTCCAGAG` please. 0.864

Same question for `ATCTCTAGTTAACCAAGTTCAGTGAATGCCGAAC` please. 3

Same question for `CGAACTAGTTCATTGACAGGACAGTGAATAGTAA` please. 0.739

Same question for `TCTCGGAGGACACGCAGGTCAGAGCTTTCCAGAG` please. 0.213

Same question for `ATATGTAGGTTAGCTGGGGTCATTAAGACTAGGC` please. 3.46
